target: Lethal(3)malignant brain tumor-like protein 1 (Homo sapiens); assay: qHTS Assay for the Inhibitors of L3MBTL1; details: AlphaScreen L3MBTL1–H3K9me1 peptide binding; series mostly up to 57.1 µM; also: nearly all actives have a fitted effect of over 60% in size; also: potency is read from the fitted curve at half-maximal effect
Hit rate of the full screen: of about 230,000 compounds, about 1,500 (0.65%) were called active. Inconclusive results (about 3%) are left out. Many of the other results were omitted from the sample, so actives are more common in it than they were.
parameter: Potency

compound	testTarget	Potency
COC(=O)C1=C(c2ccc(F)cc2OCc2ccccc2)C[C@@H]2CC[C@H]1N2C(=O)NCc1ccc(OC)c(OC)c1	Lethal(3)malignant brain tumor-like protein 1 (Homo sapiens)	inactive
COC(=O)C1=C(c2ccc(F)cc2F)C[C@@H]2CC[C@H]1N2C(=O)NC1CC1	Lethal(3)malignant brain tumor-like protein 1 (Homo sapiens)	inactive
COC(=O)[C@@H]1C(OC(=O)c2ccccc2)CC2CCC1N2C (some centres not stated)	Lethal(3)malignant brain tumor-like protein 1 (Homo sapiens)	inactive
COc1cccc(N2C(=O)NC(=O)/C(=C\c3ccc([N+](=O)[O-])s3)C2=O)c1	Lethal(3)malignant brain tumor-like protein 1 (Homo sapiens)	20 µM (active)

Item: "COC(=O)C1=C(c2ccc(C(C)=O)cc2)C[C@@H]2CC[C@H]1N2C(=O)NCCNC(C)=O" Test system: Lethal(3)malignant brain tumor-like protein 1 (Homo sapiens) Read-out: Potency Value: ?
inactive

Item: "O=C1NC(=O)N(c2ccc(F)cc2)C(=O)/C1=C/c1ccc2c(c1)CCCN2Cc1ccccc1" Test system: Lethal(3)malignant brain tumor-like protein 1 (Homo sapiens) Read-out: Potency Value: ?
inactive

Item: "O=C1NC(=O)N(c2ccccc2)C(=O)/C1=C/c1ccc([N+](=O)[O-])s1" Test system: Lethal(3)malignant brain tumor-like protein 1 (Homo sapiens) Read-out: Potency Value: ?
17.8 µM (active)

Sourced from PubChem BioAssay AID485360
